EXPERIMENTAL PROTOCOL: self-splicing fitness, log relative to wild type (ln ratio); higher = more splicing; Tetrahymena group I intron in knt gene, E. coli kanamycin selection, DiMSum; sequences stand for … in CUCUCU…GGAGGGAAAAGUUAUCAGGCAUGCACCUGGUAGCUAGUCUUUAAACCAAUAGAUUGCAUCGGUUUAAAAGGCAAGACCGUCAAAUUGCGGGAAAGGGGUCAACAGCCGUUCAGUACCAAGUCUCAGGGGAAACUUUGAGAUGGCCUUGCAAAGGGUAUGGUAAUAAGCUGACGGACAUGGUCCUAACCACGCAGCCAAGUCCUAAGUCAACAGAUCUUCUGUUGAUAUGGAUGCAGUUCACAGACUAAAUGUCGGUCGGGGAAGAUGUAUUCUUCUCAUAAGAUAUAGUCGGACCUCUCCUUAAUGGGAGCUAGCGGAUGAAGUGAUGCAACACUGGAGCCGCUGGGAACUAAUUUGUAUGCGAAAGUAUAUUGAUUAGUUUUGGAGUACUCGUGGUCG;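 also: selection with 25 µg/mL kanamycin versus none on LB agar overnight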
REPORTED CONDITIONS: 30 °C
Criterion: self-splicing fitness (ln) meeting or surpassing -3. Met: YES. Not met: NO.

Worked cases, answers included:
SEQUENCE DATA	CLASSIFICATION
GGGUAGCAAUAUUACGUGGU	YES
UAAAAGCAAUAUUACGCGUA	YES
GCGAAGCAAUAUUACGUUUG	YES
GAUAAGCAAUAUUACGAACA	YES
AUCCAGCAAUAUUACGCGGC	YES

Form field: self-splicing fitness (ln) at least -3? Entry: GAUAAGCAAUAUUACGUAGU
YES

Here is the next sequence: GAACAGCAAUAUUACGUACA
YES

Same for GACAAGCAAUAUUACGUCCU
YES

Next sequence up: AAGCAGCAAUAUUACGAUGU
YES

Could you do the same for UUGAAGCAAUAUUACGGCCU , please?
YES

Proceed to AUGCAGCAAUAUUACGAUCA
YES

Do the same for GGACAGCAAUAUUACGAGUU please
NO

How about UGUCAGCAAUAUUACGUGAU ?
YES

Consider next the sequence UUGGAGCAAUAUUACGAGGA in the same way.
NO

Try the sequence GCCGAGCAAUAUUACGCCGG
NO

----------
EXPERIMENTAL PROTOCOL: self-splicing fitness, log relative to wild type (ln ratio); higher = more splicing; Tetrahymena group I intron in knt gene, E. coli kanamycin selection, DiMSum; sequences stand for … in CUCUCU…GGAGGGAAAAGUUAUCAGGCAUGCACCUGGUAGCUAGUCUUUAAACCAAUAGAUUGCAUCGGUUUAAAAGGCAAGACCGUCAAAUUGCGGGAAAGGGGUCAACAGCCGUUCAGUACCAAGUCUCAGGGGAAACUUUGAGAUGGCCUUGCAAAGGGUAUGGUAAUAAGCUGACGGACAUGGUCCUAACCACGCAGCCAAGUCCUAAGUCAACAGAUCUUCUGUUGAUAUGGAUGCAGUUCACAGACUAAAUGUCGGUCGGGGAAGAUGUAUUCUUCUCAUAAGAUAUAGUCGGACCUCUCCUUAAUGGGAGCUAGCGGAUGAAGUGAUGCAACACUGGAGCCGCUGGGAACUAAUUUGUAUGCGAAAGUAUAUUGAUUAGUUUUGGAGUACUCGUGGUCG
REPORTED CONDITIONS: 37 °C
Some sequences, each annotated with its measured self-splicing fitness (ln).
The answer should be a number; do not append a unit.

Would you please look over these solved cases?
SEQUENCE DATA	self-splicing fitness (ln)
AUCUAGCAAUAUUACGAGUU	-0.737
GUUCAGCAAUAUUACGGGAA	-0.278
UUGAAGCAAUAUUACGUCUA	0.627

Any idea what self-splicing fitness (ln) was measured for UGUAAGCAAUAUUACGUAGA ?
-0.209

Note, next up: AACAAGCAAUAUUACGAAUA
-1.24

Try this sequence next: UACCAGCAAUAUUACGGGUG
-1.78

Can you handle UGACAGCAAUAUUACGCUUG next?
-0.702

Do the same for AUUUAGCAAUAUUACGUUGG please
-2.62

----------
EXPERIMENTAL PROTOCOL: self-splicing fitness, log relative to wild type (ln ratio); higher = more splicing; Tetrahymena group I intron in knt gene, E. coli kanamycin selection, DiMSum; sequences stand for … in CUCUCU…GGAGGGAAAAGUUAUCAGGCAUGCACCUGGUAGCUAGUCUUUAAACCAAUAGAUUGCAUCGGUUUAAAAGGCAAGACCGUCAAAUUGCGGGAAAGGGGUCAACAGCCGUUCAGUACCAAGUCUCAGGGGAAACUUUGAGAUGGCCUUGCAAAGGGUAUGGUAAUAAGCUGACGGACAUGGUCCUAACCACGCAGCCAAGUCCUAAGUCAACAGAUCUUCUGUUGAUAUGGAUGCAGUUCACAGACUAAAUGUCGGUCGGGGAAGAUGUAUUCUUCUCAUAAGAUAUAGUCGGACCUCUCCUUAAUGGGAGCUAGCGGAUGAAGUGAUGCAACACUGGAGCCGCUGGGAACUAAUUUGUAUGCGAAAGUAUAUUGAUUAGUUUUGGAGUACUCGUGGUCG
REPORTED CONDITIONS: 30 °C
Measured self-splicing fitness (ln), listed per entry.

SEQUENCE DATA	ASSAY VALUE
AAAGAGCAAUAUUACGCUCG	-2.17
GUCAAGCAAUAUUACGGCUG	-4
AUGAAGCAAUAUUACGGUCA	0.145
CUAUAGCAAUAUUACGGACG	0.217

Please look up its self-splicing fitness (ln): AACCAGCAAUAUUACGCCAU
-2.81

What about this sequence? CCCGAGCAAUAUUACGUUAA
-2.82

----------
EXPERIMENTAL PROTOCOL: self-splicing fitness, log relative to wild type (ln ratio); higher = more splicing; Tetrahymena group I intron in knt gene, E. coli kanamycin selection, DiMSum; sequences stand for … in CUCUCU…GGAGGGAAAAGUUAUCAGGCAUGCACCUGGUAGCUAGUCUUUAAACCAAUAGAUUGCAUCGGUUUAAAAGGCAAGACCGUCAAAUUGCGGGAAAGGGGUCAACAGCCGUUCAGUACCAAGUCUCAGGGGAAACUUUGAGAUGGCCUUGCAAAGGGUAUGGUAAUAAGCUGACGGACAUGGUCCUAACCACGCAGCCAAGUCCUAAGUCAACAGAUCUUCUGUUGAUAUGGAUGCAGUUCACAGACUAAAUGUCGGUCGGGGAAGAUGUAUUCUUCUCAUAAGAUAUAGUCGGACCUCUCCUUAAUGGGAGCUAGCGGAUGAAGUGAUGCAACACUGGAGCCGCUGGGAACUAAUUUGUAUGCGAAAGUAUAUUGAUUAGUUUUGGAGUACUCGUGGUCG
REPORTED CONDITIONS: 30 °C
VALUE KIND: self-splicing fitness (ln)
Respond numerically, and do not add a unit to the figure.

SEQUENCE DATA	self-splicing fitness (ln)
GCUAAGCAAUAUUACGGAUG	-1.52
UUACAGCAAUAUUACGGUAU	-1.96
AUCCAGCAAUAUUACGUGAG	-0.052
CACUAGCAAUAUUACGCAGG	-3.27
GUGUAGCAAUAUUACGUAGG	-2.66
AGUUAGCAAUAUUACGAAUA	-1.43
CACUAGCAAUAUUACGACAG	-0.114
UCGCAGCAAUAUUACGCGCC	-3.12
GCCCAGCAAUAUUACGCAGU	-0.834
CAAGAGCAAUAUUACGUCCG	-1.66

Could you share which self-splicing fitness (ln) value was measured for UGUAAGCAAUAUUACGUUGA ?
-2.71

Also check ACCGAGCAAUAUUACGACGU
-2.04

What do you have for CAGUAGCAAUAUUACGGGCG ?
-0.256

Likewise for AAAUAGCAAUAUUACGAUUG ?
-2.16

What about GGGUAGCAAUAUUACGGCGC ?
-0.217

Could you do the same for ACCAAGCAAUAUUACGUUGA , please?
-2.83

----------
Overview of reported self-splicing fitness (ln) across a group of sequences:
EXPERIMENTAL PROTOCOL: self-splicing fitness, log relative to wild type (ln ratio); higher = more splicing; Tetrahymena group I intron in knt gene, E. coli kanamycin selection, DiMSum; sequences stand for … in CUCUCU…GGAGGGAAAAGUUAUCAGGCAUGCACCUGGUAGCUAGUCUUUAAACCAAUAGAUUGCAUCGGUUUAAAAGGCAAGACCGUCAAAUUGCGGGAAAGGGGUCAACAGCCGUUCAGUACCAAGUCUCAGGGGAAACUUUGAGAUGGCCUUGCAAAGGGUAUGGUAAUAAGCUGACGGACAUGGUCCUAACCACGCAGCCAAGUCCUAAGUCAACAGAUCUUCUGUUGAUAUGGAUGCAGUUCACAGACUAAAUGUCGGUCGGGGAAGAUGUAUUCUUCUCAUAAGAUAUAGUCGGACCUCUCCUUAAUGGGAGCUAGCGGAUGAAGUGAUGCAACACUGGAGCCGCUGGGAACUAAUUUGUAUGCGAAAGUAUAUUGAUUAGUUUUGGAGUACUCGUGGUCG
REPORTED CONDITIONS: 37 °C
No unit in the answer, please; the number alone is enough.

Some sequences with known self-splicing fitness (ln) results, for comparison:
SEQUENCE DATA	self-splicing fitness (ln)
GCCGAGCAAUAUUACGCCGG	-2.08
CCUCAGCAAUAUUACGUUAC	-3.7
UUGUAGCAAUAUUACGUAUU	-2.45

Please report the recorded self-splicing fitness (ln) for GCUCAGCAAUAUUACGAGAG .
-0.875

What do you get for GAGCAGCAAUAUUACGGUUA ?
-0.875

Try this sequence too: UGCCAGCAAUAUUACGUCGC
-2.95

Repeat with CCUUAGCAAUAUUACGUUGA
-3.02

Please do the same for GCCAAGCAAUAUUACGAGGU as well.
-2.74
